Molecular target: von Willebrand factor full length (Homo sapiens, UniProt P04275 SEQ:764-2813)
Assay: filter; 33% bound at 100 nM vWF
Conditions: tags: Calbiochem 681300; label: 5'-32P
Experimental: For KD determination, chemically synthesized aptamers were purified using denaturing polyacrylamide gel electrophoresis, 5′end labeled with γ-³²P ATP and were tested for direct binding to full length human vWF (Calbiochem Cat.# 681300, La Jolla, Calif.). […] KD values were calculated by fitting the equation y=(max/(1+K/protein))+yint using KaleidaGraph (KaleidaGraph v. 3.51, Synergy Software).
Attribute measured: Kd (nM)
All answers are understood in nM, so give the number only.

Request: Value lookup for Kd; key = GGCGUGCAGUGCCUUCGGCCGTGCGGTGCCUCCGUCACGCC (mixed, 2'-OMe/deoxy composite as printed in Table 22, 3'-idT) [ARC1342]
Result: 15.6
